Molecular target: T1, human TIGIT on CHOK1-huTIGIT-2A3 cells (human, UniProt Q495A1 22-244)
T1 construct: whole, on cells; also called cells expressing the human TIGIT
T1 sequence (looked up): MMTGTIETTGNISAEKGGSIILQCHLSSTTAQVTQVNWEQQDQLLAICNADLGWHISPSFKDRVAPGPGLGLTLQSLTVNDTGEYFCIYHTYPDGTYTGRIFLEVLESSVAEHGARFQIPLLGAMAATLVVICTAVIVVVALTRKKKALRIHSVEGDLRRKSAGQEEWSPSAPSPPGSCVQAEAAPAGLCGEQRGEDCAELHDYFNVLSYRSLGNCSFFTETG
Test: flow cytometry on CHOK1-huTIGIT-2A3 cells
value.type: EC50 (µg/mL)
# unit: µg/mL | format: bare number

HB0031 (antibody, human IgG1, kappa, V domains shown, Humanized anti-TIGIT IgG1; also called 900464) VH: QVQLQESGPGLVKPSETLSLTCTVSGYSITSDYAWIWIRQPPGKGLEWIGYITSSGSTYYNPSLKSRVTFSVDTSKNQFSLKLSSVTAADTATYYCARLDFGNYGGAMDYWGQGTLVTVSS VL: DIQMTQSPSSLSASVGDRVTITCKASQHVSTALAWYQQKPGKAPKLLIYSASYLQSGVPSRFSGSRSGTDFTLTISSLQPEDFATYYCQQHYITPYTFGQGTKLEIKR    0.0581
HB0033 (antibody, human IgG1, kappa, V domains shown, Humanized anti-TIGIT IgG1; also called 900476) VH: QVQLQESGPGLVKPSETLSLTCTVSGYSITSDYAWIWIRQPPGNKLEWIGYITSSGSTYYNPSLKSRVTFSVDTSKNQFSLKLSSVTAADTATYYCARLDFGNYGGAMDYWGQGTLVTVSS VL: DIQMTQSPSSLSASVGDRVTITCKASQHVSTALAWYQQKPGKAPKLLIYSASYLQSGVPSRFSGSRSGTDFTLTISSLQPEDFATYYCQQHYITPYTFGQGTKLEIKR    0.0514

# input for lookup
[Q] Name the recorded EC50 for HB0030 (antibody, human IgG1, kappa, V domains shown, Humanized anti-TIGIT IgG1; also called 900461; TIGIT parental monoclonal antibody) VH: QVQLQESGPGLVKPSETLSLTCTVSGYSITSDYAWIWIRQPPGKGLEWIGYITSSGSTYYNPSLKSRVTFSVDTSKNQFSLKLSSVTAADTATYYCARLDFGNYGGAMDYWGQGTLVTVSS VL: DIQMTQSPSSLSASVGDRVTITCRASQHVSTAVNWYQQKPGKAPKLLIYSASYLYSGVPSRFSGSRSGTDFTLTISSLQPEDFATYYCQQHYITPYTFGQGTKLEIKR .
[A] 0.0466
